settings: buffer; pH 7.4; 200.0 µM
outcome measure: solubility kinetic

Fill in the blank: the reported solubility kinetic of Cc1cnc(NC(=O)Cc2ccc(Br)cc2)s1 is ____.
< 0.3 µg/mL

Fill in the blank: the reported solubility kinetic of COc1cc(C(C)=O)ccc1Oc1cnccn1 is ____.
> 36.6 µg/mL

Fill in the blank: the reported solubility kinetic of O=C(/C=C/c1c(Cl)cccc1Cl)N1CCOCC1 is ____.
> 42.9 µg/mL

* * *

details: buffer; pH 7.4; 200.0 µM
outcome measure: solubility kinetic

Fill in the blank: the reported solubility kinetic of O=C(NC1(C(F)(F)F)NC(=O)N(C2CCCCC2)C1=O)C1CC1 (configuration not stated) is ____.
> 50 µg/mL

Fill in the blank: the reported solubility kinetic of CCN(CC)C(=O)CN1C(=O)NC2(CCc3ccccc3C2)C1=O (configuration not stated) is ____.
> 49.4 µg/mL

Fill in the blank: the reported solubility kinetic of CC1CCN(C(=O)CCN2C(=O)C3C4C=CC(C4)C3C2=O)CC1 (configuration not stated) is ____.
> 47.5 µg/mL

Fill in the blank: the reported solubility kinetic of O=C(Cn1c(CO)nc2ccccc21)NCCc1ccccc1 is ____.
> 46.4 µg/mL

* * *

Listed here are compounds together with their documented solubility kinetic.
conditions: buffer; pH 7.4; 200.0 µM

Before answering, review these 3 worked examples.
{"columns": ["compound", "solubility kinetic"],
 "data": [
  ["CCc1onc(C)c1C(=O)O", "> 23.3 µg/mL"],
  ["Cc1onc(C(=O)NC2CCCCC2)c1[N+](=O)[O-]", "> 38 µg/mL"],
  ["Cc1cccc(C(=O)OCC(=O)NC(C)CCc2ccccc2)c1O (centres undefined)", "< 0.7 µg/mL"]
]}

Fill in the blank: the reported solubility kinetic of CCCOc1cccc(C(=O)NCCNC(=O)c2ccccn2)c1 is ____.
> 49.1 µg/mL

* * *

Listed here are molecules together with their documented solubility kinetic.
details: buffer; pH 7.4; 200.0 µM

{"columns": ["molecule", "solubility kinetic"],
 "data": [
  ["CC1(C)C(=O)Nc2ccccc2N1C(=O)CSc1ncccn1", "> 49.3 µg/mL"],
  ["O=C(C1CCCO1)N1CCN(C(=S)NC2CC2)CC1 (stereo not drawn)", "> 42.5 µg/mL"],
  ["N#Cc1ccc(NC(=O)COC(=O)c2cccnc2Cl)cc1", "> 47.4 µg/mL"]
]}

Fill in the blank: the reported solubility kinetic of O=C(NC(Cc1c[nH]c2ccccc12)C(=O)O)c1ccc2c(c1)OCO2 (stereo not drawn) is ____.
> 52.9 µg/mL

Fill in the blank: the reported solubility kinetic of CCOC(=O)c1[nH]c(C)c(C(=O)OC)c1C is ____.
> 33.8 µg/mL

Fill in the blank: the reported solubility kinetic of Cc1nnc(SC(C)C(=O)NC2CCCCC2)s1 (stereo not drawn) is ____.
> 42.8 µg/mL

Fill in the blank: the reported solubility kinetic of CC(=O)c1ccc(N2CCN(C(=S)NCCCN(C)C)CC2)cc1 is ____.
> 52.3 µg/mL

Fill in the blank: the reported solubility kinetic of Cc1ccc2c(c1)C(c1ccccc1)=NCC(=O)N2 is ____.
> 37.5 µg/mL

Fill in the blank: the reported solubility kinetic of CC(=O)Nc1ccc(C(=O)N2CCCc3ccccc32)cc1 is ____.
> 44.2 µg/mL

* * *

conditions: buffer; pH 7.4; 200.0 µM
Listed here are molecules together with their documented solubility kinetic.

{"columns": ["molecule", "solubility kinetic"],
 "data": [
  ["COc1ccc(NC(=S)NC2CCCC2)c(OC)c1", "> 42.1 µg/mL"]
]}

Fill in the blank: the reported solubility kinetic of CCCCN1C(=O)NC(NC(=O)C2CC2)(C(F)(F)F)C1=O (stereo not given) is ____.
> 46.1 µg/mL

Fill in the blank: the reported solubility kinetic of CC1CCCN(CC(=O)NC(=O)NC2CCCCC2)C1 (stereo not given) is ____.
> 42.2 µg/mL

Fill in the blank: the reported solubility kinetic of O=C(Cn1c2ccc(F)cc2c2nc3n(c(=O)c21)CCS3)N1CCCC1 is ____.
> 55.9 µg/mL

Fill in the blank: the reported solubility kinetic of Cc1cccc(C(=O)Nc2ccc(O)cc2C(=O)O)c1 is ____.
> 40.7 µg/mL

* * *

details: buffer; pH 7.4; 200.0 µM
Listed here are compounds together with their documented solubility kinetic.

Before answering, review these 6 worked examples.
{"columns": ["compound", "solubility kinetic"],
 "data": [
  ["CN(CC(O)COc1ccc2ccccc2c1)C1CCCCC1.Cl (configuration not stated)", "> 52.5 µg/mL"],
  ["COc1ccc(CCNCc2ccc(C)s2)cc1OC.Cl", "> 49.2 µg/mL"],
  ["NC(=O)C1(C(N)=O)OC1c1ccc(Cl)cc1Cl (configuration not stated)", "> 41.3 µg/mL"],
  ["COc1ccc(N2CCN(Cc3nc4ccccc4[nH]3)CC2)cc1", "> 48.4 µg/mL"],
  ["Cc1nc(N=C(N)N)nc2ccccc12", "> 30.2 µg/mL"],
  ["CC1C(=O)N2CCCc3cc(NC(=O)C4CCCCC4)cc1c32 (configuration not stated)", "> 46.9 µg/mL"]
]}

Would you kindly look at the next entry?
Fill in the blank: the reported solubility kinetic of O=C1c2cccc3cccc(c23)C(=O)N1Cc1ccccc1 is ____.
< 0.6 µg/mL

* * *

conditions: buffer; pH 7.4; 200.0 µM
Okay, here is how we bin by solubility kinetic: low-valued (below 6 µg/mL), mid-valued (6 µg/mL to below 40 µg/mL), high-valued (40 µg/mL or more)

{"columns": ["molecule", "label class"],
 "data": [
  ["Fc1cccc(CNc2ncnc3cc(Cl)ccc23)c1F", "low-valued"],
  ["CSc1ccc(CNCC2CCCO2)cc1.Cl (stereo unspecified)", "mid-valued"],
  ["OC(CNc1ncnc2sccc12)c1ccccc1 (stereo unspecified)", "high-valued"]
]}

The entry to classify is CCN(Cc1ccccc1)C(=O)Cc1c[nH]c2ccccc12 ; which class holds it?
mid-valued

The entry to classify is Cl.O=C(CCN1CCc2ccccc2C1)Nc1ccc(F)c(F)c1 ; which class holds it?
mid-valued

The entry to classify is COCC(=O)OCC(=O)Nc1ccccc1-c1ccccc1 ; which class holds it?
high-valued

The entry to classify is Cc1nc(SC(C)C(=O)NC2CCCCC2C)c2c(C)c(C)sc2n1 (stereo unspecified) ; which class holds it?
low-valued

The entry to classify is CCC(C)NC(=O)c1cn(-c2cccc(OC)c2)c(=O)c2ccccc12 (stereo unspecified) ; which class holds it?
high-valued

The entry to classify is COc1ccccc1OCC(=O)Nc1cc(S(=O)(=O)N2CCOCC2)ccc1N1CCCCC1 ; which class holds it?
low-valued

The entry to classify is COC(=O)c1cc(OC)c(OC)cc1NC(=O)c1csc(C)c1 ; which class holds it?
low-valued

The entry to classify is COc1ccc(C2C(C(C)=O)=C(O)C(=O)N2c2ccc(O)cc2)cc1 (stereo unspecified) ; which class holds it?
high-valued

The entry to classify is CCCCN1C(=O)C(=O)N(CC(=O)NC2CCCc3ccccc32)C1=O (stereo unspecified) ; which class holds it?
high-valued

* * *

conditions: buffer; pH 7.4; 200.0 µM
Threshold rule: solubility kinetic greater than or equal to 8 µg/mL is y; below that, n.

Before answering, review these 5 worked examples.
{"columns": ["molecule", "label class"],
 "data": [
  ["COc1ccc(CNc2ncccc2[N+](=O)[O-])cc1", "y"],
  ["C=CCn1c(C)c(C(=O)OCC)c2cc(O)c3ccccc3c21", "n"],
  ["CC1(N(O)/C=C2\\C=CC=CC2=O)CCCCC1=O (centres undefined)", "y"],
  ["CC(C)(C)c1ccc(C(=O)NCCC(=O)N2CCCC2)cc1", "y"],
  ["CC(=O)N1CCN(C(=O)CSc2ncnc3sc(C)c(C)c23)CC1", "y"]
]}

For this molecule, is measured solubility kinetic 8 µg/mL or higher? O=C(COC(=O)/C=C/c1cccc(Cl)c1)Nc1c(F)cccc1F
n

For this molecule, is measured solubility kinetic 8 µg/mL or higher? Cc1cccc2c1NC1(CCCC1)CC2C.Cl (centres undefined)
n

For this molecule, is measured solubility kinetic 8 µg/mL or higher? S=C(NCCc1ccccc1)N1CCN(C2CCCCC2)CC1
y

For this molecule, is measured solubility kinetic 8 µg/mL or higher? CCCCC(=O)N1CCN(c2nc3ccc(F)cc3s2)CC1
y

For this molecule, is measured solubility kinetic 8 µg/mL or higher? Cc1ccccc1C(=O)NC(C)C1CC2CCC1C2 (centres undefined)
y

For this molecule, is measured solubility kinetic 8 µg/mL or higher? CCCNC(=O)c1ccc(COc2ccc(Cl)cc2)o1
y

For this molecule, is measured solubility kinetic 8 µg/mL or higher? COc1cc(/C=C/C(=O)OCC(=O)Nc2cc(S(=O)(=O)N3CCOCC3)ccc2Cl)cc(OC)c1OC
n

For this molecule, is measured solubility kinetic 8 µg/mL or higher? NS(=O)(=O)c1cc2c(cc1C(F)(F)F)NCNS2(=O)=O
y

For this molecule, is measured solubility kinetic 8 µg/mL or higher? COC(=O)c1ccc(OC(=O)CN2C(=O)c3ccccc3C2=O)cc1
y

For this molecule, is measured solubility kinetic 8 µg/mL or higher? O=C(CCN1C(=O)C2CC=CCC2C1=O)OCC(=O)c1ccc(F)cc1 (centres undefined)
y

For this molecule, is measured solubility kinetic 8 µg/mL or higher? OCCC1CN(CC2CCCCC2)CCN1CC1CCCCC1 (centres undefined)
y

For this molecule, is measured solubility kinetic 8 µg/mL or higher? COc1ccc(C(=O)NCC(=O)OCC(=O)NC2CCCCCC2)cc1
y
